Hi there, I'd appreciate the recorded Kd for every entry that follows.
target_of_assay: GDP-bound KRAS wild-type protein (Homo sapiens)
Sequence (P01116 1-188 isoform P01116-2): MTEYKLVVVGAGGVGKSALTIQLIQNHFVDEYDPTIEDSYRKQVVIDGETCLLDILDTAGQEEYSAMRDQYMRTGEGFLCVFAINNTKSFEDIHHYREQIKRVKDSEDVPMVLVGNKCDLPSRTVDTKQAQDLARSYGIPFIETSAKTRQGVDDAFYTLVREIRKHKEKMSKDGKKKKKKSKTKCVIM
protocol_details: Binding to KRAS by surface plasmon resonance (SPR), dissociation constant KD
details: Single Cycle Kinetics
Procedure: Surface plasmon resonance was used to analyze the binding affinity of compounds for KRAS, NRAS, and HRAS. […] The resulting sensorgram was subjected to curve fitting based on a 1:1 binding model on Biacore Insight Evaluation Software or T200 Evaluation Software, and thereby the dissociation constant KD of each compound with respect to KRAS, NRAS, and HRAS was determined. […]
Give bare numbers, in nM.

| smiles_str | unit_string | Kd |
| --- | --- | --- |
| CCC[C@@H]1NC(=O)C[C@@H](C(=O)N(C)C)N(C)C(=O)[C@H](C2CCCC2)N(C)C(=O)C2(CC(C)(C)C2)NC(=O)[C@@H]2C[C@@H](OCC)CN2C(=O)[C@H](CCc2ccc(C(F)(F)F)c(Cl)c2)NC(=O)CN(C)C(=O)[C@H](Cc2ccc(C(F)(F)F)cc2)N2CC/C=C\C[C@@H](C2=O)N(C)C(=O)CN(C)C(=O)[C@H]([C@@H](C)CC)NC1=O | nM | 0.3 |

Prompt: Enter Kd (test system GDP-bound KRAS wild-type protein (Homo sapiens)) for CCO[C@@H]1C[C@H]2C(=O)NC3(CC(C)(C)C3)C(=O)N(C)[C@@H](C3CCCC3)C(=O)N(C)[C@H](C(=O)N(C)CC)CC(=O)N(C)[C@@H]([C@H](C)OC)C(=O)N[C@@H]([C@@H](C)CC)C(=O)N(C3CC3)CC(=O)N(C)[C@H]3C/C=C\CCN(C3=O)[C@@H](Cc3ccc(C(F)(F)F)cc3)C(=O)N(C)CC(=O)N[C@@H](CCc3ccc(C(F)(F)F)c(Cl)c3)C(=O)N2C1
Response: 0.82

---

Tested on: human lung cancer strain NCI-H441
protocol_details: NCI-H441 cell proliferation inhibitory activity (CellTiter-Glo, 4 days)
Assay type: cell-based
details: NCI-H441 cells, 4 days, read-out: NCl-H441 IC50
Record form. Attribute: IC50. Fill in for each entry.
Answers are plain numbers, in nM.

Here's what some known entries look like.
| compound | unit_string | IC50 |
| --- | --- | --- |
| CCC[C@H]1C(=O)N[C@@H]([C@@H](C)CC)C(=O)N(C2CC2)CC(=O)N(C)[C@H]2C/C=C\CCN(C2=O)[C@@H](CC2CCC(F)(F)CC2)C(=O)N(C)CC(=O)N[C@@H](CCc2ccc(Cl)c(Cl)c2)C(=O)N2C[C@H](OC(C)C)C[C@H]2C(=O)NC2(CC(C)(C)C2)C(=O)N(C)[C@@H](C2CCCC2)C(=O)N(C)[C@H](C(=O)N(C)C)CC(=O)N1C [PP2521] | nM | 129 |
| CCCO[C@H](C)[C@@H]1NC(=O)[C@H](CC(C)C)N(C)C(=O)C[C@@H](C(=O)N(C)C)N(C)C(=O)[C@H](C2CCCC2)N(C)C(=O)C2(CC(C)(C)C2)NC(=O)[C@@H]2C[C@H](C)CN2C(=O)[C@H](CCc2ccc(C(F)(F)F)c(OC)c2)NC(=O)CN(C)C(=O)[C@H](Cc2ccc(C)cc2)N2CC/C=C\C[C@@H](C2=O)N(C)C(=O)CN(C)C1=O [PP2415] | nM | 10.3 |

Prompt: Answer with the recorded IC50 of CCC[C@H]1C(=O)N[C@@H]([C@@H](C)CC)C(=O)N(C2CC2)CC(=O)N(C)[C@H]2C/C=C\CCN(C2=O)[C@@H](Cc2ccc(C)cc2)C(=O)N(C)CC(=O)N[C@@H](CCc2ccc(Cl)c(Cl)c2)C(=O)N2C[C@H](OC3CCC3)C[C@H]2C(=O)NC2(CC(C)(C)C2)C(=O)N(C)[C@@H](C2CCCC2)C(=O)N(C)[C@H](C(=O)N(C)C)CC(=O)N1C [PP2616] only.
Response: 66.4

---

Give pIC50 for every item shown.
Tested on: human lung cancer strain NCI-H441
Assay type: cell-based
Where a SMILES comes first, the peptide text is derived from it. Bridges are numbered along the chain shown (N, C = ends). [ ]: non-standard residue; d: D form. The star is where a group is joined. hPhe(3-Cl-4-CF3) = N[C@@H](CCc1ccc(C(F)(F)F)c(Cl)c1)C(=O)O; NPrPhe(4-CF3) = CCCN[C@@H](Cc1ccc(C(F)(F)F)cc1)C(=O)O; NMeGly(cPent) = CN[C@H](C(=O)O)C1CCCC1; Hyp = O=C(O)[C@@H]1C[C@@H](O)CN1; NMeD = CN[C@@H](CC(=O)O)C(=O)O; NMeL = CN[C@@H](CC(C)C)C(=O)O; Morpholide = C1CN(*)CCO1; Ac5c = NC1(C(=O)O)CCCC1; Aze = O=C(O)[C@@H]1CCN1; Ac4c = NC1(C(=O)O)CCC1; Sar = CNCC(=O)O
Answers are plain numbers, as −log10 of the molar value.

Look up pIC50 for the entries below, preserving their order.
1. CCO[C@@H]1C[C@H]2C(=O)NC3(CC(C)(C)C3)C(=O)N(C)[C@@H](C3CCCC3)C(=O)N(C)[C@H](C(C)C)CC(=O)N(C)[C@@H](CC)C(=O)N[C@@H]([C@@H](C)CC)C(=O)N(C)CC(=O)N(C)[C@H]3C/C=C\CCN(C3=O)[C@@H](CC3CCCCC3)C(=O)N(C)CC(=O)N[C@@H](CCc3cc(F)c(C(F)(F)F)c(F)c3)C(=O)N2C1
2. CCCN1C(=O)[C@@H]2CCN2C(=O)CN(C)C(=O)[C@H]([C@@H](C)CC)NC(=O)[C@H](CC(C)C)N(C)C(=O)C[C@@H](C(=O)N2CCOCC2)N(C)C(=O)[C@H](C2CCCC2)N(C)C(=O)C2(CCCC2)NC(=O)[C@@H]2CCCN2C(=O)[C@H](CCc2ccc(C(F)(F)F)c(Cl)c2)NC(=O)CN(C)C(=O)[C@@H]1Cc1ccc(C(F)(F)F)cc1 [PP0156] ([NMeL]I[Sar][Aze][NPrPhe(4-CF3)][Sar][hPhe(3-Cl-4-CF3)]P[Ac5c][NMeGly(cPent)][NMeD]-Morpholide; lactam N-11)
3. CC[C@H](C)[C@@H]1NC(=O)[C@H](CC(C)C)N(C)C(=O)C[C@@H](C(=O)N2CCOCC2)N(CC)C(=O)[C@H](C2CCCC2)N(C)C(=O)C2(CCC2)NC(=O)[C@@H]2CC(F)(F)CN2C(=O)[C@H](CCc2cc(F)c(C(F)(F)F)c(F)c2)NC(=O)CN(C)C(=O)[C@H](Cc2ccc(C(F)(F)F)cc2)N2CCCCC[C@@H](C2=O)N(C)C(=O)CN(C)C1=O
4. CC[C@H](C)[C@@H]1NC(=O)[C@H](CC)N(C)C(=O)C[C@@H](C(=O)N(C)C)N(CC)C(=O)[C@H](C2CCCC2)N(C)C(=O)C2(CCC2)NC(=O)[C@@H]2CCCCN2C(=O)[C@H](CCc2cc(F)c(C(F)(F)F)c(F)c2)NC(=O)CN(C)C(=O)[C@H](Cc2ccc(C(F)(F)F)cc2)N2CCCC[C@@H](C2=O)N(C)C(=O)CN(C)C1=O
5. CCO[C@@H]1C[C@H]2C(=O)NC3(CCCC3)C(=O)N(C)[C@@H](C3CCCC3)C(=O)N(C)[C@H](C(=O)N(C)C)CC(=O)N(C)[C@@H](CC(C)C)C(=O)N[C@@H]([C@@H](C)CC)C(=O)N(C)CC(=O)N(C)[C@H]3C/C=C\CCN(C3=O)[C@@H](Cc3ccc(C(F)(F)F)cc3)C(=O)N(C)CC(=O)N[C@@H](CCc3ccc(Cl)c(Cl)c3)C(=O)N2C1
6. CCCN1C(=O)CN(C)C(=O)CNC(=O)[C@H]([C@@H](C)CC)NC(=O)[C@H](CC(C)C)N(C)C(=O)C[C@@H](C(=O)N2CCOCC2)N(C)C(=O)[C@H](C2CCCC2)N(C)C(=O)C2(CCC2)NC(=O)[C@@H]2C[C@@H](OCC)CN2C(=O)[C@H](CCc2ccc(C(F)(F)F)c(Cl)c2)NC(=O)CN(C)C(=O)[C@@H]1Cc1ccc(C(F)(F)F)cc1 [PP0397] ([NMeL]IG[Sar][NPrPhe(4-CF3)][Sar][hPhe(3-Cl-4-CF3)][Hyp](Et)[Ac4c][NMeGly(cPent)][NMeD]-Morpholide; lactam N-11)

Response:
[6.88, 8.09, 6.36, 7.25, 7.89, 9.15]

---

System: human lung cancer strain NCI-H441
Type: cell-based
Where a SMILES comes first, the peptide text is derived from it. Bridges are numbered along the chain shown (N, C = ends). [ ]: non-standard residue; d: D form. The star is where a group is joined. hPhe(3-Cl-4-CF3) = N[C@@H](CCc1ccc(C(F)(F)F)c(Cl)c1)C(=O)O; NPrPhe(4-CF3) = CCCN[C@@H](Cc1ccc(C(F)(F)F)cc1)C(=O)O; NEtPhe(4-Me) = CCN[C@@H](Cc1ccc(C)cc1)C(=O)O; NMeGly(cPent) = CN[C@H](C(=O)O)C1CCCC1; NMeD = CN[C@@H](CC(=O)O)C(=O)O; NMeL = CN[C@@H](CC(C)C)C(=O)O; NMeNva = CCC[C@H](NC)C(=O)O; Morpholide = C1CN(*)CCO1; NMeA = CN[C@@H](C)C(=O)O; NMeAib = CNC(C)(C)C(=O)O; Nle = CCCC[C@H](N)C(=O)O; Piperidide = C1CCN(*)CC1; Ac5c = NC1(C(=O)O)CCCC1; Aze = O=C(O)[C@@H]1CCN1; Sar = CNCC(=O)O
metric: pIC50
One number for each entry, as −log10 of the molar value.

| compound | pIC50 |
| --- | --- |
| CCC[C@H]1C(=O)N[C@@H]([C@@H](C)CC)C(=O)N(C)[C@@H](C)C(=O)N2CC[C@H]2C(=O)N(CCC)[C@@H](Cc2ccc(C(F)(F)F)cc2)C(=O)N(C)CC(=O)N[C@@H](CCc2ccc(C(F)(F)F)c(Cl)c2)C(=O)N2CCC[C@H]2C(=O)NC2(CCCC2)C(=O)N(C)[C@@H](C2CCCC2)C(=O)N(C)[C@H](C(=O)N2CCOCC2)CC(=O)N1C [PP0193] ([NMeNva]I[NMeA][Aze][NPrPhe(4-CF3)][Sar][hPhe(3-Cl-4-CF3)]P[Ac5c][NMeGly(cPent)][NMeD]-Morpholide; lactam N-11) | 8.85 |
| CCCC[C@@H]1NC(=O)[C@H](CCc2ccc(C(F)(F)F)c(Cl)c2)NC(=O)CN(C)C(=O)[C@H](Cc2ccc(C)cc2)N(CC)C(=O)[C@@H]2CCN2C(=O)[C@H](C)N(C)C(=O)[C@H]([C@@H](C)CC)NC(=O)[C@H](CC(C)C)N(C)C(=O)C[C@@H](C(=O)N2CCCCC2)N(C)C(=O)[C@H](CC(C)C)NC(=O)C(C)(C)N(C)C1=O [PP0048] ([NMeL]I[NMeA][Aze][NEtPhe(4-Me)][Sar][hPhe(3-Cl-4-CF3)][Nle][NMeAib]L[NMeD]-Piperidide; lactam N-11) | 6.33 |

Prompt: Tell me measured pIC50 for CCO[C@@H]1C[C@H]2C(=O)NC3(CCC3)C(=O)N(C)[C@@H](C3CCCC3)C(=O)N(C)[C@H](C(=O)N(C)C)CC(=O)N(C)[C@@H](CC)C(=O)N[C@@H]([C@@H](C)CC)C(=O)N(C)CC(=O)N(C)[C@H]3CCCCCN(C3=O)[C@@H](Cc3ccc(F)cc3Cl)C(=O)N(C)CC(=O)N[C@@H](CCc3cc(F)c(C(F)(F)F)c(F)c3)C(=O)N2C1 please.
Response: 7.41

Numbers sourced from patent EP4603105A1.
